compounds and their reported viability at 100 µM
Test Protocol: Cytotoxicity in human PBMC assessed as cell viability at 100 uM incubated for 24 to 48 hrs hrs by trypan blue dye exclusion assay
Type: cell-based
Condition Summary: PBMC (peripheral blood mononuclear cells), read-out: Activity

Structure | viability at 100 µM
O=C1C(Cl)=C(N2CCCCC2)C(=O)c2c(O)ccc(O)c21 | 65%
O=C1C(Cl)=C(N2CCOCC2)C(=O)c2c(O)ccc(O)c21 | 70%

Data credit: ChEMBL document CHEMBL4316642
